Conditions: in isobutanol, 310.65 K
assay readout: solubility (mole fraction)

1. Clc1cc(Cl)cc(Cl)c1 | 0.166

###

Details: in acetone, 278.15 K
assay readout: solubility (mole fraction)

1) Clc1cc(Cl)cc(Cl)c1 | 0.0524

###

Conditions: in cyclohexane, 295.65 K
assay readout: solubility (mole fraction)

1. Clc1cc(Cl)cc(Cl)c1 | 0.255

###

Details: in n-butanol, 310.65 K
assay readout: solubility (mole fraction)

1. Clc1cc(Cl)cc(Cl)c1 | 0.207

###

Conditions: in isobutanol, 273.15 K
assay readout: solubility (mole fraction)

1) Clc1cc(Cl)cc(Cl)c1 | 0.0246
